- Species: Rattus norvegicus
- EXPERIMENT SUMMARY: Open TG-GATES - Regimen: Single
- Assay type: toxicity, organism-based, Sprague-Dawley
- Design: regimen Single, gender Male, age 6 weeks
- RECORDED CONDITIONS: in vivo, po, 1000 mg/kg, 9 h, tissue Kidney, route gavage, dose level High
VALUE KIND: KIDNEY_R (g)
The response must be a number in g with no trailing unit.

For O=C(O)c1cn(C2CC2)c2cc(N3CCNCC3)c(F)cc2c1=O [CIPROFLOXACIN] the molecule record lists KIDNEY_R as 0.9

For CCc1cc(C(N)=S)ccn1 [ETHIONAMIDE] the molecule record lists KIDNEY_R as 1

For Clc1ccccc1CN1CCc2sccc2C1 [TICLOPIDINE] the molecule record lists KIDNEY_R as 0.9

For C[C@H](CS)C(=O)N1CCC[C@H]1C(=O)O [CAPTOPRIL] the molecule record lists KIDNEY_R as 1

For O=C(O)c1cc(/N=N/c2ccc(S(=O)(=O)Nc3ccccn3)cc2)ccc1O [SULFASALAZINE] the molecule record lists KIDNEY_R as 1

---

Give MCV for every item shown.
- Organism: Rattus norvegicus
- EXPERIMENT SUMMARY: Open TG-GATES - Regimen: Single
- Assay type: toxicity, organism-based, Sprague-Dawley
- Parameters: regimen Single, gender Male, age 6 weeks
- RECORDED CONDITIONS: in vivo, po, 0 mg/kg, 24 h, tissue Blood, route gavage, dose level Control
The response must be a number in fL with no trailing unit.

For CCc1cc(C(N)=S)ccn1 [ETHIONAMIDE] the compound record lists MCV as 64.7

For COc1cc2c(c3oc(=O)c4c(c13)CCC4=O)[C@@H]1C=CO[C@@H]1O2 [AFLATOXIN] the compound record lists MCV as 60.9

For CN(C)CCC=C1c2ccccc2CCc2ccccc21 [AMITRIPTYLINE] the compound record lists MCV as 65.5

---

- Organism: Rattus norvegicus
- EXPERIMENT SUMMARY: Open TG-GATES - Regimen: Single
- Assay type: toxicity, organism-based, Sprague-Dawley
- Parameters: regimen Single, gender Male, age 6 weeks
- RECORDED CONDITIONS: in vivo, po, 300 mg/kg, 3 h, tissue Plasma, route gavage, dose level Middle
Decide using GLC alone. Strictly below 200 mg/dL: 1.0. Equal to or above 200 mg/dL: 0.0.

Ask: In plain terms, does O=C(O)c1cn(C2CC2)c2cc(N3CCNCC3)c(F)cc2c1=O come in under 200 mg/dL for GLC?
Result: 1.0

Ask: In plain terms, does C[C@H](CS)C(=O)N1CCC[C@H]1C(=O)O come in under 200 mg/dL for GLC?
Result: 0.0

---

Give KIDNEY_R for every item shown.
- Species: Rattus norvegicus
- EXPERIMENT SUMMARY: Open TG-GATES - Regimen: Daily Repeat
- Type: toxicity, organism-based, Sprague-Dawley
- Parameters: regimen Daily Repeat, gender Male, age 6 weeks
- RECORDED CONDITIONS: in vivo, po, 0 mg/kg, […], tissue Kidney, route gavage, dose level Control, time 14 day

For NC(=O)N1c2ccccc2C=Cc2ccccc21 [CARBAMAZEPINE] the molecule record lists KIDNEY_R as 1.2 g

For Cn1c(=O)c2[nH]cnc2n(C)c1=O.O the molecule record lists KIDNEY_R as 1.3 g

For COc1ccc(Cc2nccc3cc(OC)c(OC)cc23)cc1OC the molecule record lists KIDNEY_R as 1.3 g

For CSc1ccc2c(c1)N(CCC1CCCCN1C)c1ccccc1S2 (centres undefined) the molecule record lists KIDNEY_R as 1.3 g

For CN(C)CCC=C1c2ccccc2CCc2ccccc21 the molecule record lists KIDNEY_R as 1.2 g

For C[C@H](CS)C(=O)N1CCC[C@H]1C(=O)O the molecule record lists KIDNEY_R as 1.3 g

For CO[C@H]1/C=C/O[C@@]2(C)Oc3c(C)c(O)c4c(O)c(c(/C=N/N5CCN(C)CC5)c(O)c4c3C2=O)NC(=O)/C(C)=C\C=C\[C@H](C)[C@H](O)[C@@H](C)[C@@H](O)[C@@H](C)[C@H](OC(C)=O)[C@@H]1C the molecule record lists KIDNEY_R as 1.2 g

For CC(=O)Oc1ccccc1C(=O)O the molecule record lists KIDNEY_R as 1.3 g

For CCc1cc(C(N)=S)ccn1 [ETHIONAMIDE] the molecule record lists KIDNEY_R as 1.3 g

---

- Species: Rattus norvegicus
- EXPERIMENT SUMMARY: Open TG-GATES - Regimen: Single
- Type: toxicity, organism-based, Sprague-Dawley
- Design: regimen Single, gender Male, age 6 weeks
- RECORDED CONDITIONS: in vivo, po, 100 mg/kg, 9 h, tissue Plasma, route gavage, dose level Low
Give ALP for every item shown.

For CCc1cc(C(N)=S)ccn1 [ETHIONAMIDE] the compound record lists ALP as 756.6 IU/L

For Clc1ccccc1CN1CCc2sccc2C1 the compound record lists ALP as 955 IU/L

For O=C(O)c1cn(C2CC2)c2cc(N3CCNCC3)c(F)cc2c1=O the compound record lists ALP as 813.2 IU/L

For O=C(O)c1cc(/N=N/c2ccc(S(=O)(=O)Nc3ccccn3)cc2)ccc1O the compound record lists ALP as 932.8 IU/L

For C[C@H](CS)C(=O)N1CCC[C@H]1C(=O)O the compound record lists ALP as 891.4 IU/L

---

Give WBC for every item shown.
- Species on record: Rattus norvegicus
- EXPERIMENT SUMMARY: Open TG-GATES - Regimen: Single
- Type: toxicity, organism-based, Sprague-Dawley
- Parameters: regimen Single, gender Male, age 6 weeks
- RECORDED CONDITIONS: in vivo, po, 1000 mg/kg, 3 h, tissue Blood, route gavage, dose level High

For O=C(O)c1cc(/N=N/c2ccc(S(=O)(=O)Nc3ccccn3)cc2)ccc1O the molecule record lists WBC as 94.9 x10_2/uL

For Clc1ccccc1CN1CCc2sccc2C1 the molecule record lists WBC as 61.1 x10_2/uL

For O=C(O)c1cn(C2CC2)c2cc(N3CCNCC3)c(F)cc2c1=O the molecule record lists WBC as 101.3 x10_2/uL

For CCc1cc(C(N)=S)ccn1 [ETHIONAMIDE] the molecule record lists WBC as 62.9 x10_2/uL

---

- Species on record: Rattus norvegicus
- EXPERIMENT SUMMARY: Open TG-GATES - Regimen: Single
- Type: toxicity, organism-based, Sprague-Dawley
- Set-up: regimen Single, gender Male, age 6 weeks
- RECORDED CONDITIONS: in vivo, po, 1000 mg/kg, 3 h, route gavage, dose level High
VALUE KIND: TERMINAL_BW
Write the quantity with the unit trailing the number.

For O=C(O)c1cc(/N=N/c2ccc(S(=O)(=O)Nc3ccccn3)cc2)ccc1O the compound record lists TERMINAL_BW as 210.6 g

For O=C(O)c1cn(C2CC2)c2cc(N3CCNCC3)c(F)cc2c1=O the compound record lists TERMINAL_BW as 182 g

For Clc1ccccc1CN1CCc2sccc2C1 the compound record lists TERMINAL_BW as 212.3 g

For C[C@H](CS)C(=O)N1CCC[C@H]1C(=O)O the compound record lists TERMINAL_BW as 222.3 g

For CCc1cc(C(N)=S)ccn1 [ETHIONAMIDE] the compound record lists TERMINAL_BW as 227.9 g

---

- Organism: Rattus norvegicus
- EXPERIMENT SUMMARY: Open TG-GATES - Regimen: Single
- Assay type: toxicity, organism-based, Sprague-Dawley
- Set-up: regimen Single, gender Male, age 6 weeks
- RECORDED CONDITIONS: in vivo, po, 0 mg/kg, 3 h, tissue Plasma, route gavage, dose level Control
Give ALP for every item shown.
The response must be a number in IU/L with no trailing unit.

For Cn1c(=O)c2[nH]cnc2n(C)c1=O.O the molecule record lists ALP as 1309

For COc1ccc(Cc2nccc3cc(OC)c(OC)cc23)cc1OC the molecule record lists ALP as 1651.2

For Clc1ccccc1CN1CCc2sccc2C1 the molecule record lists ALP as 806

For CCc1cc(C(N)=S)ccn1 [ETHIONAMIDE] the molecule record lists ALP as 831

For NC(=O)N/N=C/c1ccc([N+](=O)[O-])o1 the molecule record lists ALP as 1508.2

For C[C@H](CS)C(=O)N1CCC[C@H]1C(=O)O the molecule record lists ALP as 902.4

For NC(=O)N1c2ccccc2C=Cc2ccccc21 [CARBAMAZEPINE] the molecule record lists ALP as 846.4

For O=C(O)c1cc(/N=N/c2ccc(S(=O)(=O)Nc3ccccn3)cc2)ccc1O the molecule record lists ALP as 1055

For O=C(O)c1cn(C2CC2)c2cc(N3CCNCC3)c(F)cc2c1=O the molecule record lists ALP as 1050.6

For CN(C)CCC=C1c2ccccc2CCc2ccccc21 the molecule record lists ALP as 1452

For CSc1ccc2c(c1)N(CCC1CCCCN1C)c1ccccc1S2 (configuration not stated) the molecule record lists ALP as 789.2

For CC(=O)Oc1ccccc1C(=O)O the molecule record lists ALP as 895.2
